Values compiled from the kinase profiling compilation of Christmann-Franck et al. (2016).

Target: PRKCI (human) (UniProt P41743)
Sequence (P41743 whole entry, looked up): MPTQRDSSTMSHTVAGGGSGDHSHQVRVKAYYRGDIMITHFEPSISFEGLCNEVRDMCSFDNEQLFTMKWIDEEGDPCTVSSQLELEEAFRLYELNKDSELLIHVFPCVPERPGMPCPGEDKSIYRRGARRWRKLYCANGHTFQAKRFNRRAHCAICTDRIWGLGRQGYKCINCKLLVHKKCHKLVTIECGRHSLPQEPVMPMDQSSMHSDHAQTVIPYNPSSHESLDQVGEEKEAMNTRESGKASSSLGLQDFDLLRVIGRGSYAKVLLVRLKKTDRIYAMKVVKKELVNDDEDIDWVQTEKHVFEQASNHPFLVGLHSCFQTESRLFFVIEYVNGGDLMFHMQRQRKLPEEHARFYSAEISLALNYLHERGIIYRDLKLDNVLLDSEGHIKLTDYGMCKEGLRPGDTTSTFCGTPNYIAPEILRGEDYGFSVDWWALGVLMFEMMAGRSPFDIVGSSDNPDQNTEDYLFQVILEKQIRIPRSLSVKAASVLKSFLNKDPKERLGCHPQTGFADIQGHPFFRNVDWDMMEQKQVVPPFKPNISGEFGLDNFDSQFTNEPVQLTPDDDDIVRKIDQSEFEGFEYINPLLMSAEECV
Test: radiometric filter-binding kinase assay, Kinase HotSpot
Conditions: compound 0.5 µM; ATP 10 µM
Please go through the items and note down their residual activity.
Numbers only, in %.

COc1ccc(COc2ccc(Cc3cnc(N)nc3N)cc2OC)cc1 : 91.6
Cc1[nH]c(/C=C2\C(=O)Nc3ccc(S(=O)(=O)N(C)c4cccc(Cl)c4)cc32)c(C)c1C(=O)N1CCN(C)CC1 : 98.7
Nc1ncnc2[nH]nc(Nc3ccc(F)cc3)c12 : 91.3

Could you report residual activity for every entry in the following list?
1. N#C/C(=C(/N)Sc1ccc(N)cc1)c1ccccc1C(F)(F)F
2. CCN(CC)C(=O)c1ccc(Nc2nc(OCC3CCCCC3)c3nc[nH]c3n2)cc1
3. CC[n+]1c(/C=C/N(C)c2ccccc2)n(-c2ccccc2)c2ccc(-c3nc4ccccc4s3)cc21
4. O=C1NC(=O)/C(=C/c2ccc3c(c2)OC(F)(F)O3)S1

1: 102; 2: 97.2; 3: 90.1; 4: 95.9

Quick batch: residual activity for everything below.
1. N#CC(C#N)=C(N)/C(C#N)=C/c1ccc(O)cc1
2. CC#CC(=O)Nc1cc2c(Nc3ccc(F)c(Cl)c3)ncnc2cn1
3. CC(C)N(CCC(=O)c1ccc2ccccc2c1)Cc1ccccc1

97.4
96.6
97.1

###

Please provide measured residual activity for the entries that follow.
Target: UniProtKB Q05397
Sequence (Q05397 whole entry, looked up): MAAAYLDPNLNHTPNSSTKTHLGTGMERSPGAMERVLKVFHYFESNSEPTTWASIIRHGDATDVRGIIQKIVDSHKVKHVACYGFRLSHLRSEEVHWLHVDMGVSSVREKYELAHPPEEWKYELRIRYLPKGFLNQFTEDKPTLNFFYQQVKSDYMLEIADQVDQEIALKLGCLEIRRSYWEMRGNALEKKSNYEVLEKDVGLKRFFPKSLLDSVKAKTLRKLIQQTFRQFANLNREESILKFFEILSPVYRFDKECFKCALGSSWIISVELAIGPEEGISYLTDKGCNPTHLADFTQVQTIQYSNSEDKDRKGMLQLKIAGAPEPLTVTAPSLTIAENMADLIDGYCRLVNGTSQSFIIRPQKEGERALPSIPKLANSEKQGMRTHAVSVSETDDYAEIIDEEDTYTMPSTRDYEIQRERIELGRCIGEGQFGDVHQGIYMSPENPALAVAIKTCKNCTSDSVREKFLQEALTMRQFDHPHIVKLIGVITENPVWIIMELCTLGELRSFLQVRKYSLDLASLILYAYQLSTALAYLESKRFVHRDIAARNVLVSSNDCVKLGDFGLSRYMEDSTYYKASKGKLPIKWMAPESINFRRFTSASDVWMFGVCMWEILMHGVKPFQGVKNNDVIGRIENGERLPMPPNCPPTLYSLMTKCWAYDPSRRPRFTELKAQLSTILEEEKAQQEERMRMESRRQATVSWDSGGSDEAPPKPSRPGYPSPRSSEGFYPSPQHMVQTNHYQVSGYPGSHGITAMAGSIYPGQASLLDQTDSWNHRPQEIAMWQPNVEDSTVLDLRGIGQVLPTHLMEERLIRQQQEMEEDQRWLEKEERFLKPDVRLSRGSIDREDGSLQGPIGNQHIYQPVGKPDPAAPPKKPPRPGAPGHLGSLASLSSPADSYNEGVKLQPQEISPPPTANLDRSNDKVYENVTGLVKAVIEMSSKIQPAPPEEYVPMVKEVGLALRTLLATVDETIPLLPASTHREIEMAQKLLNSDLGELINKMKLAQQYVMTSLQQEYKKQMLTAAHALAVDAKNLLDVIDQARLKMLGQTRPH
Assay: radiometric filter-binding kinase assay, Kinase HotSpot
Details: compound 0.5 µM; ATP 10 µM
One number for each entry, in %.

Check out these entries, answers already filled in.
CCCC(=O)Oc1ccc2[nH]c(C(=O)c3cc4ccccc4[nH]3)cc2c1 : 94.1
N#C/C(=C(/N)Sc1ccc(N)cc1)c1ccccc1C(F)(F)F : 101
CO[C@H]1CC2CC[C@@H](C)[C@@](O)(O2)C(=O)C(=O)N2CCCC[C@H]2C(=O)OC([C@H](C)C[C@@H]2CC[C@@H](O)[C@H](OC)C2)CC(=O)[C@H](C)/C=C(\C)[C@@H](O)[C@@H](OC)C(=O)[C@H](C)C[C@H](C)/C=C/C=C/C=C/1C (stereo partly drawn) : 103
COc1ccc2c(c[n+](C)c3c4cc5c(cc4ccc23)OCO5)c1OC : 102
CCN(CC)C(=O)c1ccc(Nc2nc(OCC3CCCCC3)c3nc[nH]c3n2)cc1 : 76.9
CCC(=O)Nc1ccc2ncnc(Nc3cccc(Br)c3)c2c1 : 99.4
Cc1ccc(NC2=CC(=O)c3sc(C)nc3C2=O)cc1 : 102
Nc1cccc(-c2cc3c(Oc4cccc(O)c4)ncnc3[nH]2)c1 : 88.4

List reported residual activity for each of these compounds:
1. c1ccc(-c2n[nH]c3c2oc2ccccc23)cc1
2. Cc1[nH]c(/C=C2\C(=O)Nc3ccc(S(=O)(=O)N(C)c4cccc(Cl)c4)cc32)c(C)c1C(=O)N1CCN(C)CC1
3. O=S(=O)(c1cccc2cnccc12)N1CCCNCC1
4. O=C1Nc2ccc(Cl)cc2/C1=C/c1cc(Cl)c(O)c(Cl)c1
5. O=C1NC(=O)/C(=C/c2ccc3c(c2)OC(F)(F)O3)S1

94.7
96.8
93.9
91.5
94.9

###

Target: MAPKAPK2 (human) (UniProt P49137)
Sequence (P49137 whole entry, looked up): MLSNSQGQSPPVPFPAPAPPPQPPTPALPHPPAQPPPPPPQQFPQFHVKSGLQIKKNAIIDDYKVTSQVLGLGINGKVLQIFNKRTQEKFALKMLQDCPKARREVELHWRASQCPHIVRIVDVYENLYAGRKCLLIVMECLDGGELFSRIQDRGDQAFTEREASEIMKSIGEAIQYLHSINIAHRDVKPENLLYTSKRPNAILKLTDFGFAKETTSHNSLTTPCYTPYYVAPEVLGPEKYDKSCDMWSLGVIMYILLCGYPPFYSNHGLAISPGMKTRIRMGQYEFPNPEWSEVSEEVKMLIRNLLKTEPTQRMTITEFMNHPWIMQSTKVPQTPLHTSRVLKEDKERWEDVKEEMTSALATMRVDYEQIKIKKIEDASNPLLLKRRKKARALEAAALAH
Assay: radiometric filter-binding kinase assay, Kinase HotSpot
Conditions: compound 0.5 µM; ATP 10 µM
Please respond with reported residual activity for every item in the list.
Answers are plain numbers, in %.

Past entries and their recorded results:
Nc1cccc(-c2cc3c(Oc4cccc(O)c4)ncnc3[nH]2)c1 : 108
CCN(CC)C(=O)c1ccc(Nc2nc(OCC3CCCCC3)c3nc[nH]c3n2)cc1 : 99.2
CCN(CC)CCNC(=O)c1c(C)[nH]c(/C=C2\C(=O)Nc3ccc(Cl)cc32)c1C : 103
N#C/C(=C(/N)Sc1ccc(N)cc1)c1ccccc1C(F)(F)F : 103
CCCC(=O)Oc1ccc2[nH]c(C(=O)c3cc4ccccc4[nH]3)cc2c1 : 92.4

Please state, for each entry, its recorded residual activity.
1. CNc1cc2c(Nc3cccc(Br)c3)ncnc2cn1
2. COc1cc2ncnc(Nc3cccc(Cl)c3)c2cc1OC
3. CC(C)N(CCC(=O)c1ccc2ccccc2c1)Cc1ccccc1
4. Cc1ccc(Nc2nccc(N(C)c3ccc4c(C)n(C)nc4c3)n2)cc1S(N)(=O)=O
5. CC#CC(=O)Nc1cc2c(Nc3ccc(F)c(Cl)c3)ncnc2cn1
6. Nc1ccc2ncnc(NCCc3ccc(Oc4ccccc4)cc3)c2c1

1: 99.6; 2: 98; 3: 99; 4: 99.6; 5: 104; 6: 108
